# maps each entry to its pKd
- TESTED ON: SNX27, Q96L92
- ASSAY OVERVIEW: holdup assay
- Set-up: key: below the threshold = too weak to quantify, mostly under pKd 3.1 to 4
- EXPERIMENTAL SETUP: plain residues with an end cap or a label only (N-terminal biotin on a linker: ado-ado)
API doc: respond with a numeric literal and nothing else, no unit.

The following binders have reported results that may help.
The reported pKd of the binder RFQQRMQTHV [KIRREL1, Q96J84] was 3.85

The reported pKd of the binder NTLNRKTTPV [CACNG8, Q8WXS5] was 4.98

The reported pKd of the binder VLYPREGTEV [FOXI1, Q12951] was 4.31

The reported pKd of the binder PSVGSKKTVL [REELD1, A0A1B0GV85] was 3.71

# evaluate next
The reported pKd of the binder QSYPSKHDYV [CLDN18, P56856] was 3.83
